# tested.target: human F508del-CFTR (Homo sapiens, UniProt P13569, DEL508-508)
# Sequence (P13569 with tags, fused parts or gaps DEL508-508): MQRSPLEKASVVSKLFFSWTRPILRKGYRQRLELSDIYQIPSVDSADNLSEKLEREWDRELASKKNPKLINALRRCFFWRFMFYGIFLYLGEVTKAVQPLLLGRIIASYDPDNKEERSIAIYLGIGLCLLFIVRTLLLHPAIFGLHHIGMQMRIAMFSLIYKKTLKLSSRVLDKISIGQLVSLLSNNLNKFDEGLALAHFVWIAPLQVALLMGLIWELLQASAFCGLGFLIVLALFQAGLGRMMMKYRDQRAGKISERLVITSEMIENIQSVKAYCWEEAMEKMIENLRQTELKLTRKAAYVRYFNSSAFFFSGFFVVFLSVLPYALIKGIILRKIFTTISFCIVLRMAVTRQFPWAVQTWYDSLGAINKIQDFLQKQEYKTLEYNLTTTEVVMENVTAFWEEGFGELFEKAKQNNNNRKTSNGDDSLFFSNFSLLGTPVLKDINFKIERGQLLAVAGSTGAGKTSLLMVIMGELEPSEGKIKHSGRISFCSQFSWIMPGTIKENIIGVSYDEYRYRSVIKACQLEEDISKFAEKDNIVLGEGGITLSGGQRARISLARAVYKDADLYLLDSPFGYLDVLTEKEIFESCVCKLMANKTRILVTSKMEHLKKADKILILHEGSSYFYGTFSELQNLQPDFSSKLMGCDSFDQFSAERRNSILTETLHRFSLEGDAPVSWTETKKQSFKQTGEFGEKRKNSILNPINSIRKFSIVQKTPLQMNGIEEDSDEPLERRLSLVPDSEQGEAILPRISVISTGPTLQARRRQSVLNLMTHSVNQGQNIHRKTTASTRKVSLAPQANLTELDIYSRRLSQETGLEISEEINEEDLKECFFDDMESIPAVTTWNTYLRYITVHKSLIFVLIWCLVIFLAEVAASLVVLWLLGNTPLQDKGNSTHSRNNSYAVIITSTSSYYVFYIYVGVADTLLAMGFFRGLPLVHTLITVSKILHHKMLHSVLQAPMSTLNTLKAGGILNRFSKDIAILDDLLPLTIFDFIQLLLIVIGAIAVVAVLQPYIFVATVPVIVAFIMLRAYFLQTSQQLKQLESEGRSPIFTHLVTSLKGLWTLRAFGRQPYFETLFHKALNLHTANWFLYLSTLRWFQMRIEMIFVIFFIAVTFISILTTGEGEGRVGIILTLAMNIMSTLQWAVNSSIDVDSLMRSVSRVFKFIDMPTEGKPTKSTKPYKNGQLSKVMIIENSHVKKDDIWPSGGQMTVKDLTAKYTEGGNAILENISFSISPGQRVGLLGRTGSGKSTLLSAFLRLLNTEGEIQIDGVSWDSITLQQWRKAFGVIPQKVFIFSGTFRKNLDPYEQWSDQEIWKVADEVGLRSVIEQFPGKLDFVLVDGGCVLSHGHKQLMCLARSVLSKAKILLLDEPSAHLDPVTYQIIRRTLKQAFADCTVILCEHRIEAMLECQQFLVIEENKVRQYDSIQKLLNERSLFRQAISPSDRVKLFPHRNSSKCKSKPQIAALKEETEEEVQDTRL
# test.name: F508del-CFTR cell surface expression (corrector activity), DiscoveRx ß-galactosidase complementation chemiluminescence assay in recombinant U2OS cell line;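 also: U2OS cells co-expressing ProLink-tagged F508del-CFTR and a membrane-anchored enzyme acceptor, where more surface CFTR restores β-galactosidase activity measured by chemiluminescence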
# conditions: EC50, F508del-CFTR cell surface expression, U2OS cell line, 16h compound incubation; geomean values
Entries and their measured EC50 follow.

- compound: "COc1cc(F)c(CCNC(=O)[C@@H]2CC(=O)N(C)[C@@H](CC(C)C)C(=O)N3CCCC[C@@H]3C(=O)N[C@H](Cc3ccccc3)COc3cnc4ccccc4c3C(=O)N2)c(F)c1 [Example 74]"
  EC50 [nM]: 128
- compound: "Cc1cc2c(cn1)C(=O)N[C@H](C(=O)NCCc1ccc3c(c1)OCO3)CC(=O)N(C)[C@@H](CC(C)C)C(=O)N(CCC1CCCCC1)CC(=O)N[C@H](Cc1ccccc1)CO2 [Example 270]"
  EC50 [nM]: 423
- compound: "CC(C)C[C@H]1C(=O)N2CCCC[C@@H]2C(=O)N[C@H](Cc2ccccc2)COc2cnc3ccccc3c2C(=O)N[C@H](C(=O)NCCc2ccc(F)cc2F)CC(=O)N1C [Example 94]"
  EC50 [nM]: 257
- compound: "CC(C)C[C@H]1C(=O)N(C)C2(CC2)C(=O)N[C@H](Cc2ccccc2)COc2cnc3ccc(F)cc3c2C(=O)N[C@H](C(=O)NCCc2ccc(N3CCOCC3)cc2)CC(=O)N1C [Example 170]"
  EC50 [nM]: 329
- compound: "COc1cccc(CCNC(=O)[C@@H]2CC(=O)N(C)[C@@H](CC(C)C)C(=O)N3CCN(CC(C)C)C[C@H]3C(=O)N[C@H](Cc3ccccc3)COc3cnc4ccccc4c3C(=O)N2)c1 [Example 373]"
  EC50 [nM]: 200

Just for reference, patent US20240208992A1 is where these values come from.
